Measured values drawn from PubChem BioAssay (NCATS) for this set.

# test_system: Peroxisome proliferator-activated receptor alpha (Homo sapiens) (UniProt Q07869)
# Sequence (Q07869 whole entry, looked up): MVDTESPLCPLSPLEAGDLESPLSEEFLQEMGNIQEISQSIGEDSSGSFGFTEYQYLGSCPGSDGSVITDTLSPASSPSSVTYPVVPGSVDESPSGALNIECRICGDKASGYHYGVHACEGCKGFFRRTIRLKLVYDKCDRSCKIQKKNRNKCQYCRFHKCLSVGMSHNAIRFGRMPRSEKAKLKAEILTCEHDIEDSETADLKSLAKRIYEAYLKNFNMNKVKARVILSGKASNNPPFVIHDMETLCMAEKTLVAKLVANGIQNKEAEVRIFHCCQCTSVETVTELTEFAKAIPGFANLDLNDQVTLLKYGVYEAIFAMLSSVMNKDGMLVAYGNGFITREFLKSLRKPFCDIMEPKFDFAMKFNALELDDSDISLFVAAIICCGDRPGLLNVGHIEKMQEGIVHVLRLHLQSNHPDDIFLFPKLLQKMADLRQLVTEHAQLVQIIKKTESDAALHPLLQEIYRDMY
# assay_details: qHTS assay for small molecule agonists of the peroxisome proliferator-activated receptor alpha (PPARalpha) signaling pathway (AID 651778); further: % of control where 0% means no effect
# recorded_conditions: PathHunter PPARalpha complementation, chemiluminescence, 6 h; stronger effect = higher value
Property: max response; scope: individual molecules
// note: answer is a bare numeric in %

{"columns": ["molecule", "max response, %"],
 "data": [
  ["CCC[CH2][Sn]1([CH2]CCC)[O]C(=O)C=CC(=O)[O]1", 0.652],
  ["C/C(=N\\C(N)=O)N(C)Cc1ccc(Cl)nc1", -1.45],
  ["CCOP(=O)(OCC)OP(=O)(OCC)OCC", -1.23]
]}

Enquiry: Supply max response value. Item: COc1cc(OC)nc(NC(=O)NS(=O)(=O)c2cc(NC=O)ccc2C(=O)N(C)C)n1
Return: -4.09

Enquiry: Give recorded max response. CS/C(C)=N/OC(=O)N(C)SN(C)C(=O)O/N=C(\C)SC
Return: -1.01

Enquiry: Specify max response for CCCCCCCCCCCCN(C)C and stop.
Return: -1.36

---

# test_system: Peroxisome proliferator-activated receptor alpha (Homo sapiens)
# assay_details: qHTS assay for small molecule agonists of the peroxisome proliferator-activated receptor alpha (PPARalpha) signaling pathway (AID 651778); further: % of control where 0% means no effect
# recorded_conditions: PathHunter PPARalpha complementation, chemiluminescence, 6 h; stronger effect = higher value
test_readout: max response (%)
Your answer should be a plain number; it is taken to be in %.

Check out these entries, answers already filled in.
{"columns": ["molecule", "max response [%]"],
 "data": [
  ["CC(C)C(C(=O)OC(C#N)c1cccc(Oc2ccccc2)c1)c1ccc(Cl)cc1 (centres undefined)", 0.669],
  ["CCC(C)(C)c1cc(-n2nc3ccccc3n2)c(O)c(C(C)(C)CC)c1", 0.0334],
  ["CCNc1nc(Cl)nc(NC(C)(C)C#N)n1", 0.299],
  ["CCOCn1c(-c2ccc(Cl)cc2)c(C#N)c(Br)c1C(F)(F)F", 14.2],
  ["COC(=O)c1ccccc1S(=O)(=O)NC(=O)N(C)c1nc(C)nc(OC)n1", -1.41]
]}

Enquiry: Give max response for O=P(O)(O)CN(CP(=O)(O)O)CP(=O)(O)O
Return: 4.68

Enquiry: Annotate the molecule O=c1[nH]c2ccccc2c(=O)o1 with its measured max response.
Return: -3.96

---

# test_system: Thyroid hormone receptor beta (Homo sapiens) (UniProt P10828)
# Sequence (P10828 whole entry, looked up): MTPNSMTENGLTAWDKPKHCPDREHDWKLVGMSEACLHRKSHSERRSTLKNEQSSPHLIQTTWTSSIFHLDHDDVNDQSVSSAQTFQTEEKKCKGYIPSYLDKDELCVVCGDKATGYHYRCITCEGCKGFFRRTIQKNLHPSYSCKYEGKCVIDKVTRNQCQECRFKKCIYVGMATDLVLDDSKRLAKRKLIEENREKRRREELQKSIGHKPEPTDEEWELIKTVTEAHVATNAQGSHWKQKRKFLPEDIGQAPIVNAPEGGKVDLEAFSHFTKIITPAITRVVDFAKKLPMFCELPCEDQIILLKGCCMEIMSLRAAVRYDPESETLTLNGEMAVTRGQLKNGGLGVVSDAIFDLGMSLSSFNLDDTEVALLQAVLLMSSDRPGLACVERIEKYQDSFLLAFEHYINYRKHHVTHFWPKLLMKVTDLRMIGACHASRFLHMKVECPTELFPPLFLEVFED
# assay_details: qHTS assay for small molecule agonists of thyroid hormone receptor beta signaling (AID 588545);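 further: 0% = DMSO only and 100% = 10 nM T3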
# recorded_conditions: TR-UAS-bla GripTite HEK 293, beta-lactamase ratio, agonist mode, 18 h; series mostly up to 76.7 µM
Results filed as inconclusive are left out. Calls of active or inactive are those of the source. Calls follow the shape of the full dose curve.

{"columns": ["item_smiles", "test_system", "outcome"],
 "data": [
  ["CCC[CH2][Sn]([CH2]CCC)([O]C(C)=O)[O]C(C)=O", "Thyroid hormone receptor beta (Homo sapiens) (UniProt P10828)", "inactive"],
  ["Clc1ccc([C@@]2(Cn3cncn3)C[C@H](Br)CO2)c(Cl)c1", "Thyroid hormone receptor beta (Homo sapiens) (UniProt P10828)", "inactive"],
  ["CNC(=O)Oc1cccc(N=CN(C)C)c1", "Thyroid hormone receptor beta (Homo sapiens) (UniProt P10828)", "inactive"]
]}

---

# Tested on: AS120
# assay_details: qHTS profiling for inhibitors of Plasmodium falciparum proliferation (AID 504749); further: nearly all actives have a fitted effect of over 60% in size
# recorded_conditions: P. falciparum in erythrocytes, SYBR Green DNA, 72 h; series mostly up to 28.7 µM
Results filed as inconclusive are left out. Calls of active or inactive are those of the source. Calls follow the shape of the dose curve; as a rule, active = well fitted inhibition curve with a large enough effect; inconclusive = small, poorly fitted or top-dose-only effect; inactive = flat fitted curve, though single readings scatter.
I would appreciate it if you answered using one of these outcomes: active, inactive

{"columns": ["compound", "test_system", "class_assignment"],
 "data": [
  ["C#CC1(O)C=CC2C3CCC4=CC(=O)CCC4C3CCC21CC (stereo not given)", "AS120", "inactive"],
  ["CCOC(=O)c1cncn1[C@@H](C)c1ccccc1", "AS120", "inactive"],
  ["[S]=[Sb][S][Sb]=[S]", "AS120", "inactive"],
  ["CCOC(=O)/C=C(C)/C=C/CC(C)CCCC(C)C (stereo not given)", "AS120", "inactive"],
  ["NC(Cc1ccc(Oc2cc(I)c(O)c(I)c2)c(I)c1)C(=O)O (stereo not given)", "AS120", "inactive"]
]}

Enquiry: What did the test return for COC(C(=O)C(O)C(C)O)C1Cc2cc3cc(OC4CC(OC5CC(O)C(OC)C(C)O5)C(OC(C)=O)C(C)O4)c(C)c(O)c3c(O)c2C(=O)C1OC1CC(OC2CC(OC3CC(C)(O)C(OC(C)=O)C(C)O3)C(O)C(C)O2)C(O)C(C)O1 (stereo not given) ?
Return: active

Enquiry: Hi, sorry to bother you, what did the test record for COC(=O)C1C(OC(=O)c2ccccc2)CC2CCC1N2C (stereo not given) ?
Return: inactive

Enquiry: Record request — test call for C=CC[N+]1(C)CCC23c4c5ccc(O)c4O[C@H]2C(=O)CC[C@@]3(O)C1C5 (stereo not given in full)
Return: inactive

Enquiry: Test call for this compound, please: OCC(O)[C@H]1O[C@@H]2O[C@H](C(Cl)(Cl)Cl)O[C@@H]2[C@H]1O (stereo not given in full)
Return: inactive

Enquiry: Hi team, can someone confirm the assay call for C[C@]12C=CC(=O)C=C1CC[C@@H]1C2CC[C@]2(C)OC(=O)CCC12 (stereo not given in full) ?
Return: inactive

---

Known activation of a selection of molecules
# test_system: Glucocorticoid receptor (Homo sapiens) (UniProt P04150)
# Sequence (P04150 whole entry, looked up): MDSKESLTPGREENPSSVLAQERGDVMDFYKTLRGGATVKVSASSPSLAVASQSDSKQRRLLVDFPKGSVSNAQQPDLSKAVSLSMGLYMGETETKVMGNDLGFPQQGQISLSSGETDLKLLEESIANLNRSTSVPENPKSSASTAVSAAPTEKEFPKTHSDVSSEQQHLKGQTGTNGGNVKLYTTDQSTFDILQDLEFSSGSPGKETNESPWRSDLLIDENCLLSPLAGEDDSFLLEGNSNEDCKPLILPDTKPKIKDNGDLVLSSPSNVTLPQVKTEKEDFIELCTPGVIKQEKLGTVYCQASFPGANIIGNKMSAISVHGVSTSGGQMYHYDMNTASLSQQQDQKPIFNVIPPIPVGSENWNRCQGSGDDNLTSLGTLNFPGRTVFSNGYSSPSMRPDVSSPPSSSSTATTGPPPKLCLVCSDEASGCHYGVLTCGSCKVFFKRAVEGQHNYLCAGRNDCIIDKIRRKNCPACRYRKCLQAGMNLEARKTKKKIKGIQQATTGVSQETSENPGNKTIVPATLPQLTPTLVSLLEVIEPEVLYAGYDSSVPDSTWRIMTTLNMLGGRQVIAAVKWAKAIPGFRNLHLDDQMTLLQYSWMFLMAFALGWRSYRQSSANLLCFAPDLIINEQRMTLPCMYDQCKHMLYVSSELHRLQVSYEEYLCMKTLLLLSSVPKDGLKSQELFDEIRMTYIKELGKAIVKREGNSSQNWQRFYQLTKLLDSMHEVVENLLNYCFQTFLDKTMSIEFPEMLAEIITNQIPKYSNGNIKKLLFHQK
# assay_details: qHTS assay for small molecule agonists of glucocorticoid receptor signaling (AID 588532);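 further: 100% = dexamethasone at 0.1 µM and 0% = DMSO only wells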
# recorded_conditions: HeLa MMTV-bla, beta-lactamase ratio, agonist, 18 h; stronger effect = higher value, percent of dexamethasone control, DMSO zero
Inconclusive results are not listed. Active and inactive are the calls of the source. Calls come from the whole dose curve; as a rule, active = well fitted curve in the direction sought with a large enough effect in the signal ratio, with a control signal flat; inconclusive = small, poorly fitted or top-dose-only effect, or a change in a side signal; inactive = no such curve, though single readings can be large or run the other way; the % refers to the signal ratio.

{"columns": ["molecule", "activation"],
 "data": [
  ["C=CCC1=C(C)[C@@H](OC(=O)[C@@H]2[C@@H](C=C(C)C)C2(C)C)CC1=O", "1.31% (inactive)"],
  ["CCCCOCCOC(C)=O", "-12.9% (inactive)"],
  ["CCCCN(CC)C(=O)SCCC", "4.14% (inactive)"],
  ["CC(C)(C)C(=O)[C@H](Oc1ccc(Cl)cc1)n1cncn1", "-0.211% (inactive)"],
  ["CN(C)c1ccc(C(=O)c2ccc(N(C)C)cc2)cc1", "-2.75% (inactive)"]
]}

Enquiry: State activation (Glucocorticoid receptor (Homo sapiens) (UniProt P04150)) of CC1(C)[C@H](C(=O)O[C@H](C#N)c2cccc(Oc3ccccc3)c2)[C@@H]1/C=C(\Cl)C(F)(F)F .
Return: 16% (inactive)

Enquiry: Given N#CC(CCc1ccc(Cl)cc1)(Cn1cncn1)c1ccccc1 (stereo not drawn) , report its activation on Glucocorticoid receptor (Homo sapiens) (UniProt P04150).
Return: -4.45% (inactive)

Enquiry: # assay system Glucocorticoid receptor (Homo sapiens) (UniProt P04150): give activation of CCCCOC(=O)[C@@H](C)Oc1ccc(Oc2ccc(C#N)cc2F)cc1
Return: -11.2% (inactive)

---

Some compounds, each annotated with its measured activation.
# assay_details: qHTS assay for small molecule activators of the p53 signaling pathway (AID 651743); further: % of control where 0% means no effect
# recorded_conditions: HCT-116 p53RE-bla, beta-lactamase FRET ratio, 16 h; stronger effect = higher value
Results filed as inconclusive are left out.
Dear colleague, please return just the value in %, with no unit written.

Worked cases, answers included:
{"columns": ["compound", "units_of_measure", "reported_measurement"],
 "data": [
  ["COC(=O)C(C)Oc1ccc(Oc2ccc(Cl)cc2Cl)cc1 (centres undefined)", "%", -3.5],
  ["O=[N+]([O-])Nc1nccn1Cc1ccc(Cl)nc1", "%", -1.74],
  ["CCCCCCCCn1sccc1=O", "%", -5.11],
  ["O=[N+]([O-])c1ccc(Nc2ccccc2)cc1", "%", -0.549],
  ["CCCSC(=O)N(CCC)CCC", "%", 5.3]
]}

Enquiry: Provide activation value for the following compound: CCS(=O)(=O)c1cccnc1S(=O)(=O)NC(=O)Nc1nc(OC)cc(OC)n1
Return: -3.66

Enquiry: Determine from records and report activation for CC(C)(C)C(=O)[C@H](Oc1ccc(Cl)cc1)n1cncn1
Return: -5.19

Enquiry: Let me know recorded activation for CSC(=O)c1c(C(F)F)nc(C(F)(F)F)c(C(=O)SC)c1CC(C)C , thanks.
Return: -0.469

Enquiry: Give activation for the following compound: COC(=O)c1c(C(F)F)nc(C(F)(F)F)c(C2=NCCS2)c1CC(C)C
Return: 6.04

---

# test_system: Peroxisome proliferator-activated receptor alpha (Homo sapiens)
# assay_details: qHTS assay for small molecule agonists of the peroxisome proliferator-activated receptor alpha (PPARalpha) signaling pathway (AID 651778); further: % of control where 0% means no effect
# recorded_conditions: PathHunter PPARalpha complementation, chemiluminescence, 6 h; stronger effect = higher value
Parameter: max response. Scope: all listed entries.
Output spec: scalar in %, unitless text.

{"columns": ["compound", "units_of_measure", "max response"],
 "data": [
  ["Brc1ccc(Br)cc1", "%", -1.4],
  ["CCCCN(CC)c1c([N+](=O)[O-])cc(C(F)(F)F)cc1[N+](=O)[O-]", "%", -2.71],
  ["O=C/C(Cl)=C(/Cl)C(=O)O", "%", -1.15]
]}

Enquiry: Please list max response recorded for the compound CC1(C)CC/C(=C\c2ccc(Cl)cc2)C1(O)Cn1cncn1 (stereo not given)
Return: 0.489

Enquiry: Read the entry CCOP(=S)(S)OCC and write its reported max response.
Return: -2.08

Enquiry: For the compound CC(C)(C)C(O)/C(=C\c1ccc(Cl)cc1Cl)n1cncn1 (stereo not given) , report max response.
Return: 1.97

Enquiry: Dear colleague, please send me the reported max response for CNP(=O)(OC)Oc1ccc(C(C)(C)C)cc1Cl (stereo not given) when you can.
Return: -2.32

Enquiry: Quote max response reported for CC(C)[C@H](C(=O)O[C@H](C#N)c1cccc(Oc2ccccc2)c1)c1ccc(Cl)cc1 please.
Return: 0.0129

Enquiry: Please give measured max response of the following entry: CCOP(=O)(OCC)SCSP(=S)(OCC)OCC
Return: -0.113

Enquiry: Answer with the recorded max response for the compound listed here: O=S(=O)(c1ccc(O)cc1)c1ccc(O)cc1
Return: -4.37

Enquiry: # return recorded max response for input COC(=O)c1c(C(F)F)nc(C(F)(F)F)c(C2=NCCS2)c1CC(C)C
Return: -1.35

Enquiry: Consider the compound CC(C)(C)OOC(C)(C)CCC(C)(C)OOC(C)(C)C and give its recorded max response.
Return: 0.675
